molecular target: Human recombinant SSAO/VAP-1 (Homo sapiens (Human)); test: Determination of inhibitory activity of human recombinant SSAO/VAP-1 (Amplex Red, benzylamine); type: biochemical; conditions: human recombinant SSAO/VAP-1, 30 min preincubation at room temperature; read-out: SSAO/VAP-1(Human recombinant protein) IC50/nM
Sequence (Q16853 whole entry): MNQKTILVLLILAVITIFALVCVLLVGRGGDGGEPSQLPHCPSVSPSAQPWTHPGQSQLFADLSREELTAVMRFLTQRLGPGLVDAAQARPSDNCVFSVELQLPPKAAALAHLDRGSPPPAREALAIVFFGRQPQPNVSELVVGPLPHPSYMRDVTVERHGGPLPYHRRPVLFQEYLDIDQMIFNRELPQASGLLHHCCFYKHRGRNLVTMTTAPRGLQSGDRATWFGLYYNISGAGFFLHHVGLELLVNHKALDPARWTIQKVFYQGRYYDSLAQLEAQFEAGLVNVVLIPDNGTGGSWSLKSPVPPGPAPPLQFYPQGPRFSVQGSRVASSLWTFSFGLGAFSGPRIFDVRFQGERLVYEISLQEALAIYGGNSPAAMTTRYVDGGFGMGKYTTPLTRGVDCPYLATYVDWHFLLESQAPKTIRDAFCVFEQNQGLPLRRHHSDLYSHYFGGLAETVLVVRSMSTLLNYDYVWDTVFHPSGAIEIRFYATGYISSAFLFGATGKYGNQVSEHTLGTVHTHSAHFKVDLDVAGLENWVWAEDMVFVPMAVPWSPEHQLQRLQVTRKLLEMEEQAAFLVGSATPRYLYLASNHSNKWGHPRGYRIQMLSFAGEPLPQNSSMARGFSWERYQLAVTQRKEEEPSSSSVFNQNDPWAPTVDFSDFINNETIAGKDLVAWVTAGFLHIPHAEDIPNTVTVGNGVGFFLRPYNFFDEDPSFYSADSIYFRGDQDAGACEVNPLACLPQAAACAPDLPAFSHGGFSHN
Where a name gives a salt, the structure may show the parent alone.
# log10 of IC50 listing for each entry below
Response schema: value (number) is log10 of IC50 in units of nM.

[
  {
    "compound": "NC/C(=C/F)COc1ccc2c(c1)CCN(CCOCc1ccccc1)C2=O [Compound 21, hydrochloride]",
    "log10 of IC50": -0.04
  },
  {
    "compound": "COC(=O)CCN1CCc2cc(OC/C(=C/F)CN)ccc2C1=O [Compound 56, hydrochloride]",
    "log10 of IC50": 0.28
  },
  {
    "compound": "NC/C(=C\\F)COc1ccc2c(c1)CCN(c1nccs1)C2=O [Compound 40, hydrochloride]",
    "log10 of IC50": 0.00
  }
]

Challenge: Quick one: log10 of IC50 for COCCN1CCc2cc(OC/C(=C/F)CN)ccc2C1=O [Compound 18, hydrochloride] ?
Response given: -0.32

Challenge: Quick one: log10 of IC50 for NC/C(=C\F)COc1ccc2c(c1)CCN(Cc1ccon1)C2=O [Compound 42, hydrochloride] ?
Response given: 0.05

Challenge: Quick one: log10 of IC50 for NC/C(=C/F)COc1ccc2c(c1)CCN(c1ccccc1)C2 [Compound 53, hydrochloride] ?
Response given: 0.02
